Values were extracted from ChEMBL document CHEMBL1132730.

- system.name: D(4) dopamine receptor (Homo sapiens)
- Sequence (P21917 whole entry): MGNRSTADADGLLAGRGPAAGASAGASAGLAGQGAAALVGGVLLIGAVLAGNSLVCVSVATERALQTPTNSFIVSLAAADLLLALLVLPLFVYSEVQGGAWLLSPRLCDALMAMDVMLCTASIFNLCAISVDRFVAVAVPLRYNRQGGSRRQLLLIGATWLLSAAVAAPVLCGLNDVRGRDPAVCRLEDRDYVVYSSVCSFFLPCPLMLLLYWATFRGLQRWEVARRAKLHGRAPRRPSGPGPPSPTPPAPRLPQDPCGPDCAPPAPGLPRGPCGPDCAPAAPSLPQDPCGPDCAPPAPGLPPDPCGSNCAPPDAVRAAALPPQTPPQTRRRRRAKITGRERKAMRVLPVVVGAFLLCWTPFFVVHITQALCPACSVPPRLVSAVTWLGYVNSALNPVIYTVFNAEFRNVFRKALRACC
- test.description: Binding affinity at human Dopamine receptor D4 by [3H]- YM 09151 displacement.
Property: Ki; scope: individual molecules

Cc1ccc(CN2CCN(C3(C)C(=O)N(C)c4ccccc43)CC2)cc1 (centres undefined) : > 1000 nM
O=C1Nc2ccccc2C1N1CCN(Cc2ccc(Cl)cc2)CC1 (centres undefined) : > 1000 nM

input: Please report the measured Ki for CCN1C(=O)C(N2CCN(Cc3ccc(C)cc3)CC2)CCc2ccccc21 (centres undefined)
output: 2960 nM

input: Provide Ki value for the following molecule: O=C1Nc2ccccc2CC1N1CCN(Cc2ccc(Cl)cc2)CC1 (centres undefined)
output: 100 nM

input: Annotate the molecule Cc1ccc(CN2CCN(C3CCc4ccccc4NC3=O)CC2)cc1 (centres undefined) with its measured Ki.
output: > 1000 nM

input: Indicate its recorded Ki; the molecule in question is Cc1ccc(CN2CCN(C3CCc4ccccc4N(C)C3=O)CC2)cc1 (centres undefined)
output: 4380 nM

input: Entry CCN1C(=O)C(CC)(N2CCN(Cc3ccc(Cl)cc3)CC2)c2ccccc21 (centres undefined) needs its Ki filled in; supply it.
output: 7020 nM

input: Determine its reported Ki: CN1C(=O)C(C)(N2CCN(Cc3ccc(Cl)cc3)CC2)c2ccccc21 (centres undefined)
output: > 1000 nM

input: For the molecule CCN1C(=O)C(N2CCN(Cc3ccc(Cl)cc3)CC2)Cc2ccccc21 (centres undefined) , give its measured Ki value.
output: 4 nM
